The reported numbers originate from ChEMBL document CHEMBL1201862.

Listing: GI50 of selected molecules
# Test system: DU-145
# MEASUREMENT_PROTOCOL: NCI tumour cell line growth inhibition, 48 h
The source made the active and inactive calls. Rule as the data show it: active = GI50 up to about 1.1 µM and inactive = higher.

>>> test_result("O=C1Nc2ccccc2/C1=N/NC(=S)Nc1ccc(Cl)cc1")
"> 100 µM (inactive)"

Note to self: GI50 recorded for C=CCC1(C(=O)OC)CCC/C(=N\O)C1 (stereo not drawn) was > 10 µM (inactive)

Lab note: measured GI50 of "O=C(Nc1ccccc1C(=O)O)C(=Cc1ccccc1O)NC(=O)c1ccccc1" was > 100 µM (inactive)

Looking up "Cc1cc2nc(CC(C(F)(F)F)C(F)(F)F)oc2cc1C" , I found its GI50 recorded as 4.36 µM (inactive)

* * *

# Test system: RPMI-8226
# MEASUREMENT_PROTOCOL: NCI tumour cell line growth inhibition, 48 h
The source made the active and inactive calls. Cut-off read from the data, not from the text of the source: active = GI50 up to about 1.1 µM and inactive = higher.
Hi! Could you answer with just one of these? 1 (yes) (active), 0 (no) (inactive)

>>> qualitative_label("Cc1cc(-c2cscn2)c(O)c([N+](=O)[O-])c1")
"0 (no)"

Which outcome did this test record for the compound "O=[N+]([O-])c1cc(CCl)ccc1CCl" ?
0 (no)

Hey, what did the test say about "O=C(NCCN1CCOCC1)c1cn2c(ccc3sc4ccccc4c(=O)c32)n1" ?
0 (no)

Give the logged outcome of this assay for the following compound: "CCOC(=O)c1ccc2nc(-c3ccc(S(=O)(=O)F)cc3)cc(O)c2c1"
0 (no)

Status in this test for Cc1cccc(C(C)C)c1NC(=O)CC1C(=O)Nc2ccccc2S1(=O)=O (configuration not stated) ?
0 (no)

Assay outcome for "COc1ccccc1NC(=O)c1nc2ccc([N+](=O)[O-])cc2nc1C" : what was it?
0 (no)

* * *

# Tested on: NCI-H23
# MEASUREMENT_PROTOCOL: NCI tumour cell line growth inhibition, 48 h
Calls of active or inactive are those of the source. Cut-off read from the data, not from the text of the source: active = GI50 up to about 1.1 µM and inactive = higher.
OBSERVABLE: GI50

Answered examples (3):
>>> test_result("CC1C(=O)CC(c2cccs2)N(N=O)C1c1cccs1 (stereo not given)")
"40.6 µM (inactive)"
>>> test_result("CCOC(=O)C1c2[nH]c3ccccc3c2CCN1C(=O)c1ccc(OC)o1 (stereo not given)")
"> 10 µM (inactive)"
>>> test_result("CC(C)(C)c1ccc(OCCOc2ccc(C(C)(C)C)cc2N)c(N)c1")
"27.6 µM (inactive)"

According to the records, this molecule "O=C(Cc1ccc([N+](=O)[O-])c([N+](=O)[O-])c1CC(=O)C(=O)Nc1cc(Cl)ccc1Cl)C(=O)Nc1cc(Cl)ccc1Cl" displays GI50 of > 100 µM (inactive)

Note to self: GI50 recorded for "CCCCCCc1cn([C@H]2C[C@H](O)[C@@H](CO)O2)c(=O)[nH]c1=O" was > 100 µM (inactive)

* * *

# Test system: OVCAR-3
# MEASUREMENT_PROTOCOL: NCI tumour cell line growth inhibition, 48 h
Calls of active or inactive are those of the source. Rule as the data show it: active = GI50 up to about 1.1 µM and inactive = higher.
Choose the fitting class; nothing outside label 1 = active, label 0 = inactive is accepted.

>>> qualitative_label("O=C1NCC2(CCNCC2)N1c1ccccc1")
"label 0"
>>> qualitative_label("C/C(=N\\N=C(/S)SCc1ccccc1)c1ccccn1")
"label 1"
>>> qualitative_label("O=C1OC(c2ccccc2)=N/C1=C/c1cccs1")
"label 0"
>>> qualitative_label("COc1cc2c(cc1OC(=O)c1cc3ccccc3[nH]1)N=C[C@@H]1CCCN1C2=O")
"label 1"
>>> qualitative_label("O=C(CNc1ccc(Cl)cc1Cl)NC1C=Cc2ccc(S(=O)(=O)Nc3ccc(Cl)cc3Cl)cc2C1=O (stereo unspecified)")
"label 0"

Now for a further compound.
Could you please tell me the result logged for "CCn1c2ccccc2c2ccc(C3C(C(=O)OC)=C(C)NC(C)=C3C(=O)OC)cc21" in this assay?
label 0

* * *

# Tested on: A498
# MEASUREMENT_PROTOCOL: NCI tumour cell line growth inhibition, 48 h
The source made the active and inactive calls. Rule as the data show it: active = GI50 up to about 1.1 µM and inactive = higher.
OBSERVABLE: GI50

>>> test_result("CSc1nc2c(nc(N)n2C2OCC(O)C(O)C2O)c(=O)n1C (stereo unspecified)")
"> 100 µM (inactive)"
>>> test_result("Nc1nc(S)nc2snnc12")
"> 100 µM (inactive)"
>>> test_result("O=C1NCC2(CCNCC2)N1")
"> 100 µM (inactive)"
>>> test_result("COc1cc2c(cc1OC)C(=O)/C(=C/c1cc(C)c(O)c(C)c1)C2")
"> 21.2 µM (inactive)"
>>> test_result("NCCSc1nc2ccccc2s1")
"32.9 µM (inactive)"
>>> test_result("Cc1ccc(-n2c(N)c(C#N)c3[nH]nc(N)c3c2=O)cc1")
"> 100 µM (inactive)"

Lab note: measured GI50 of "O=C(/C=C1\C[C@H]2C=Nc3ccccc3C(=O)N2C1)NCCCCCNC(=O)/C=C1\C[C@H]2C=Nc3ccccc3C(=O)N2C1" was 19.1 µM (inactive)

The molecule identified as "CS/C(=N\C(=S)N(C)C)N(c1ccccc1)c1nc(N(C)C)s[s+]1" registered its GI50 at 1.9 µM (inactive)

Sure, the documented GI50 for CC(C)C(C/C=C1/CC(CO)(COC(=O)C(C)(C)C)OC1=O)C(C)C (stereo unspecified) is 7.67 µM (inactive)

O=C(Cc1ccccc1)C(c1ccccc1)S(=O)(=O)c1ccccc1 (stereo unspecified) yielded GI50 of > 100 µM (inactive)

Given item O=C1c2c(O)cccc2Cc2cccc(O)c21 [ANTHRALIN] , the value recorded as its GI50 is 1.22 µM (inactive)

* * *

Catalogue of GI50 readings, one per entry.
# Tested on: NCI-H460
# MEASUREMENT_PROTOCOL: NCI tumour cell line growth inhibition, 48 h
Active and inactive are the calls of the source. No stated cut-off is given here; in the data, active = GI50 up to about 1.1 µM and inactive = higher.

Record CC(NC1CCCC[C@@H]1O)c1ccccc1 (stereo partly specified) , field GI50: > 100 µM (inactive)

Noted for Fc1cccc(C2SCc3nc4ccccc4n32)c1F (stereo unspecified) : its GI50 reads 51.5 µM (inactive)

The reported GI50 of the molecule Cc1cn(C2CC(/[N+]([O-])=N\Nc3ccc([N+](=O)[O-])cc3)C(CO)O2)c(=O)[nH]c1=O (stereo unspecified) was 94.2 µM (inactive)

Entry [N-]=[N+]=NC1(N=[N+]=[N-])C(=O)NN=C(c2ccccc2)C1=O (stereo unspecified) ; GI50 = > 100 µM (inactive)

Lab book: GI50 of COc1cc(/C=C2\C(=O)N(c3cc(Cl)ccc3Cl)C(c3ccccc3)S2(=O)=O)cc(OC)c1OC (stereo unspecified) noted as > 100 µM (inactive)

What the record says about "O=c1nc(-c2ccccc2)scc1-c1ccccc1" : GI50 is > 100 µM (inactive)

Entry COC(OC)C1(c2ccccc2)Oc2ccccc2C1=O (stereo unspecified) ; GI50 = > 100 µM (inactive)

The molecule listed as "O=C(Nc1ccccc1C(=O)O)C(=Cc1ccccc1O)NC(=O)c1ccccc1" shows GI50 equal to > 100 µM (inactive)

Noted for COc1ccc(C(C)NNC(=O)c2cc[n+]([BH2-]C#N)cc2)c(OC)c1 (stereo unspecified) : its GI50 reads > 100 µM (inactive)

Memo: CC1C(=O)CC(c2cccs2)N(N=O)C1c1cccs1 (stereo unspecified) , reported GI50: 34.8 µM (inactive)

# GI50 of "Cc1cccc2c(=O)c([Se]c3coc4c(C)cccc4c3=O)coc12" = 5.73 µM (inactive)

* * *

# Tested on: Hs-578T
# MEASUREMENT_PROTOCOL: NCI tumour cell line growth inhibition, 48 h
Activity calls are given as the source filed them. Cut-off read from the data, not from the text of the source: active = GI50 up to about 1.1 µM and inactive = higher.
Your answer must be one of the following: active, inactive

>>> qualitative_label("COC(=O)CNC(=O)Nc1cc(N2C(=O)ON3C2C(C)(C)N(O)C3(C)C)ccc1C (stereo not given)")
"inactive"
>>> qualitative_label("CC(C)(C)NC(=O)CCC1C(C(=O)NC(C)(C)C)C2(Cl)C(Cl)=C(Cl)C1(Cl)C2(Cl)Cl (stereo not given)")
"inactive"
>>> qualitative_label("CN(C)CCNC1=Nc2ccccc2C(=S)N2CSCC12 (stereo not given)")
"inactive"
>>> qualitative_label("COC(=O)Nc1nc2cc(S(=O)(=O)n3nnc4ccccc43)ccc2[nH]1")
"inactive"
>>> qualitative_label("O=C(O[C@H]1[C@@H](O)[C@H](n2cnc3c(Cl)ncnc32)O[C@@H]1COC(c1ccccc1)(c1ccccc1)c1ccccc1)c1ccccc1")
"inactive"

// return assay outcome for CC(C)OCC(O)COc1ccc2ccc(=O)oc2c1 (stereo not given)
inactive

What call does the record list for "CCCCOC(=O)Nc1ccc(S(=O)(=O)Nc2ccccc2Cl)cc1" ?
inactive

What did this assay record as the result for "CC(C)C[C@H](NC(=O)[C@H](CCc1ccccc1)NC(=O)c1ccc2ccccc2n1)B(O)O" ?
active

Record lookup: outcome of this test for Nc1nc(Cl)cc(NCC2(CO)CC(O)C2)n1 (stereo not given) ?
inactive

Please state the recorded outcome for this compound: C=C1CCCC2[C@](C)(CC3=C(Cl)C(=O)C=C(OC)C3=O)C(C)CC[C@]12C (stereo not given in full)
inactive

Could you please tell me the result logged for CC(C(O)c1ccccc1)C(O)(C(F)(F)F)C(F)(F)F (stereo not given) in this assay?
inactive

Outcome logged for "COc1cc2c(cc1OCCCCCCCCN1C(=O)c3cccc4cccc(c34)C1=O)N=C[C@@H]1CCCN1C2=O" in this assay:
inactive

Check the results log: what was the call for CCC1(N)C(=O)OCc2c1cc1n(c2=O)Cc2cc3ccccc3nc2-1 (stereo not given) ?
inactive

Could you kindly confirm the outcome this assay logged for "CN(C)/C=N/c1ccc2c3c(cccc13)-c1ccccc1-2" ?
inactive

// return assay outcome for "O=C1Nc2ccccc2/C1=N/NC(=S)Nc1ccc(Cl)cc1"
inactive

What classification did Clc1ccc(OCC2NC3CCC2CC3)cn1 (stereo not given) end up with in this test?
inactive

Hello, I am checking results. What call was entered for "COCN1C(=O)[C@@H]2CCCN2C(=O)c2cc(OC)c(Cc3ccccc3)cc21" ?
inactive

Look up the recorded call for "CCCCCCn1c(SC)nc(COC(=O)NC)c1COC(=O)NC" in this test.
inactive

What classification did CCN(CC)C1Oc2cc3c(cc2C(c2cccc(OC)c2O)C1C)OCO3 (stereo not given) end up with in this test?
inactive

What outcome does the record of this test show for [O-][S+](c1ccc(Cl)cc1)c1ccccc1C1=NCCN1 (stereo not given) ?
inactive
